- assay-protocol: photochromic response of test squares on an optical bench (sensitivity, saturation optical density, bleach rate)
- Type: physicochemical
- condition-details: Method I test square; room temperature (75° F., 23.9° C.) after removal of activating light
endpoint-label: Bleach Rate (T1/2) (min)
Answers are plain numbers, in min.

Would you please look over these solved cases?
compound	Bleach Rate (T1/2) [min]
COC(=O)c1c2c(c3ccccc3c1OC(C)=O)OC(c1ccccc1)(c1ccc3c4ccccc4n(-c4ccccc4)c3c1)C=C2 (stereo not shown) [Example 5]	1.17
COC(=O)c1c2c(c3ccccc3c1OC(C)=O)OC(c1ccccc1)(c1ccc(N3CCOCC3)cc1)C=C2 (stereo not shown) [Example 3]	1.47
COC(=O)c1c2c(c3ccccc3c1C)OC(c1ccccc1)(c1ccc(N(C)C)cc1)C=C2 (stereo not shown) [Example 7]	3.33
COC(=O)c1c2c(c3ccccc3c1OC)OC(c1ccccc1)(c1ccc(N3CCOCC3)cc1)C=C2 (stereo not shown) [Example 2]	4.87
COC(=O)c1c2c(c3ccccc3c1OC(C)=O)OC(c1ccc(N(C)C)cc1)(c1ccc(N(C)C)cc1)C=C2 [Example 8]	0.317
COC(=O)c1c2c(c3ccccc3c1O)OC(c1ccccc1)(c1ccc(N3CCOCC3)cc1)C=C2 (stereo not shown) [Example 1]	3.22

Now turn to the next compound.
Reported Bleach Rate (T1/2) for COC(=O)c1c2c(c3ccccc3c1OC(C)=O)OC(c1ccccc1)(c1ccc(N(C)C)cc1)C=C2 (stereo not shown) [Example 6] was 1.17
